- measuredTarget: rh-α5β1 (Homo sapiens, UniProt P05556+P08648)
- Sequence (P08648 42-894 limits assumed): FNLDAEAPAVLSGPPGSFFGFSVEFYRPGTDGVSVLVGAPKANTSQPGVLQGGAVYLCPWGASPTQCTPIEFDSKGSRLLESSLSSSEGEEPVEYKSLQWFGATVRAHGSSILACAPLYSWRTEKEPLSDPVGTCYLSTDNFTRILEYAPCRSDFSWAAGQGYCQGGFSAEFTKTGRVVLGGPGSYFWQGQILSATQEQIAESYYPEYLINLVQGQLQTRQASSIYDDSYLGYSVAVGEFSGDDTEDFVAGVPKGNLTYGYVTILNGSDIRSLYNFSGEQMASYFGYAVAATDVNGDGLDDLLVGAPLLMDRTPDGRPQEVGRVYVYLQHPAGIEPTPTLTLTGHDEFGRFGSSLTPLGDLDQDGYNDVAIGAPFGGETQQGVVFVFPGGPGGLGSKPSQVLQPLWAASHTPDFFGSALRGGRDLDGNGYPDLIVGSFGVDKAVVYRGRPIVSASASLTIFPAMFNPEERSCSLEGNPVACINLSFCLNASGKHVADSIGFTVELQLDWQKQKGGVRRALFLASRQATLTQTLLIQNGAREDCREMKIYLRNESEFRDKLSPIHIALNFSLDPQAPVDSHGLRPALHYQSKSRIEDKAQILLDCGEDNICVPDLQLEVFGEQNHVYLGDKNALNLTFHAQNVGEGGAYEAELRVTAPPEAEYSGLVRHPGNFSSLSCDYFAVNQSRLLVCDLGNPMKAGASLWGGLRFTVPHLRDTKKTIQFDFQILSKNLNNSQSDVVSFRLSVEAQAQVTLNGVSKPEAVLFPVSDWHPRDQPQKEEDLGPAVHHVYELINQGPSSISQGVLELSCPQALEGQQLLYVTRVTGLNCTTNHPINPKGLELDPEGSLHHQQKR
- Sequence (P08648 895-995 limits assumed): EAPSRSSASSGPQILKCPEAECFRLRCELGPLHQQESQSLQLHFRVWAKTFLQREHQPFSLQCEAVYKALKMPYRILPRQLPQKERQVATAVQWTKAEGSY
- Sequence (P05556 21-728 limits assumed): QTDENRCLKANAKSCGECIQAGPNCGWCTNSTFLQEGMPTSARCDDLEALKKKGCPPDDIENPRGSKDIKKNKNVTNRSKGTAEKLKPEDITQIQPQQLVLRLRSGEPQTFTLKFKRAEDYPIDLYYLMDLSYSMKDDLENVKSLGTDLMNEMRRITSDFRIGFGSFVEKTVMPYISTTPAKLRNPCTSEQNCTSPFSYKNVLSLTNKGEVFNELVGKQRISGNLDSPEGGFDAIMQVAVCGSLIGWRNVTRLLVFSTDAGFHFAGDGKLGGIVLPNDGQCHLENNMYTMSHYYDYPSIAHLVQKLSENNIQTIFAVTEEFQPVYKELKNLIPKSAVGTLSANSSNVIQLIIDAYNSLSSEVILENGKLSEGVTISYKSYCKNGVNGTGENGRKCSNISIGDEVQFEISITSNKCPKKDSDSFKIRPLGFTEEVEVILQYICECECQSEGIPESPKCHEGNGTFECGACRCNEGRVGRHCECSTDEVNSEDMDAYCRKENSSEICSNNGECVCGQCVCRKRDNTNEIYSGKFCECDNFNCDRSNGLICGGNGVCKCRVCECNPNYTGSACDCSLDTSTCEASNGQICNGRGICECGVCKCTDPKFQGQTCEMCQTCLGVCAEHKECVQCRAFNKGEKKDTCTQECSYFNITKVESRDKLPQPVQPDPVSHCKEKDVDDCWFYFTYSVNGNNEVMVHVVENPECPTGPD
- experimentDescription: Competition binding studies by Biolayer Interferometry (epitope groups)
- conditionDetails: immobilized mAb A-15B08; secondary mAb pre-mixed with 20 nM rh-α5β1
resultType: Response (nm)
// return numeric value only (unit: nm, not printed)

Query :: Which Response (nm) is reported for this molecule? C-14D12: anti-α5β1 antibody, VH SEQ ID NO:109, VL SEQ ID NO:110; tested as mouse hybridoma antibody and as human IgG4 chimera (antibody, V domains shown, C-14D12 VH Sequence; C-14D12 VL Sequence, tested as mouse hybridoma antibody and as human IgG4 chimera) VH: QVQLKESGPDLVAPSQSLSITCTVSGFSLTDYGVHWVRQPPGKGLEWLVVIWSDGSTTYNSALKSRLSITKDTSKRQVFLKMNSLQTDDTAMYYCARHAPSFIRYGSRYDALDYWGQGTSVTVSS VL: QIVLTQSPAIMSASLGERVTLTCTASSSVTSSFLHWYQQKPGSSPKLWIYSTSNLASGVPARFSGSGSGTSYSLTISSMEAEDAATYYCHQYHRSPPTFGGGTKLEIK
Result :: −0.15

Query :: // returns reported Response (nm) for input A2-3B06: anti-α5β1 antibody, VH SEQ ID NO:42, VL SEQ ID NO:43 (antibody, V domains shown, A2-3B06 VH Sequence; A2-3B06 VL Sequence) VH: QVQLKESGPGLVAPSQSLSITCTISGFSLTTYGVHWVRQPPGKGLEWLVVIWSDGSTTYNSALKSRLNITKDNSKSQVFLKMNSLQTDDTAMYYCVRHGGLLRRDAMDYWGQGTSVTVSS VL: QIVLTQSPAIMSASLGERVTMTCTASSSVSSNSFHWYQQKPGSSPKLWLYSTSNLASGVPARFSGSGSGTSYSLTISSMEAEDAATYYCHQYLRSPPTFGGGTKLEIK
Result :: 0.10

Query :: Field request: Response (nm) | item: A2-7A05: anti-α5β1 antibody, VH SEQ ID NO:77, VL SEQ ID NO:78; tested as mouse hybridoma antibody and as human IgG4 chimera (antibody, V domains shown, A2-7A05 VH Sequence; A2-7A05 VL Sequence, tested as mouse hybridoma antibody and as human IgG4 chimera) VH: QVQLQQPGAELVKPGASVKLSCKASGYTFTIYWINWVKQRPGQGLEWIGKIYPGSISTDYNEKFKSKATLTVDTSSSTAYMQLSSLTSDDSAVYYCAITGTGGLAYWGQGTLVTVSA VL: ENVLTQSPAIMSASLGEKVTMTCRASSSVNYMYWYQQKSDASPKLWIYFTSSLAPGVPGRFSGSGSGNSYSLTISTMEGEDAATYYCQQFTTSPFTFGSGTKLEIK
Result :: 0.31

Query :: # query: Response (nm) of entry A2-5D10: anti-α5β1 antibody, VH SEQ ID NO:51, VL SEQ ID NO:52 (antibody, V domains shown, A2-5D10 VH Sequence; A2-5D10 VL Sequence) VH: QVQLKESGPGLVAPSQSLSITCTISGFSLTSYGVHWVRQPPGKGLEWLVVIWSDGSTTYNSTLKSRLSISKDNSKSQVFLKMNSLQTDDTAMYYCARHYDYDGDWFAYWGQGTLVTVSA VL: QILLTQSPAIMSASLGERVTMTCTASSSVSSRCLHWYQQKPGSSPKLWIYSTSNLASGVPARFRGSGSGTSYSLTISSMEAEDAATYYCHQYYRSPPTFGGGTKLEIK
Result :: 0.22
